Origin of values: patent US20120058997A1

target: Pim-1 kinase (Homo sapiens); assay: Promega Kinase-Glo Pim-1 kinase inhibition assay; assay type: biochemical; details: Table X; Kinase-Glo; read-out: IC50 on Pim1
pIC50: −log10 of the molar value.
endpoint.name: pIC50

These recorded examples may help you get a feel for the data.
COCCOc1ccc2ncc(-c3cccc(OC(F)(F)F)c3)n2n1 ... 5.30 to 6.00
O=C1CC(CNc2ccc3ncc(-c4cccc(OC(F)(F)F)c4)n3n2)CCN1 (centres unmarked) ... 5.30 to 6.00
O=S1(=O)CCC(Nc2ccc3ncc(-c4cccc(OC(F)(F)F)c4)n3n2)CC1 ... 5.30 to 6.00
C[C@]1(O)CC[C@H](Nc2ccn3ncc(-c4cccc(OC(F)(F)F)c4)c3n2)CC1 ... 6.00 to 7.00

Qu. Supply pIC50 measured with Pim-1 kinase (Homo sapiens) for `CC(C)(O)C(=O)N1CCC(CNc2ccc3ncc(-c4cccc(OC(F)(F)F)c4)n3n2)CC1` .
Ans. 7.00 to 8.00

====

target: Pim-1 kinase (Homo sapiens); assay: Promega Kinase-Glo Pim-1 kinase inhibition assay; assay type: biochemical; details: Table VIII (results); values in uM; read-out: IC50(Kinase)
// classify: if (IC50 < 5 µM) Met else Not met

CC[C@@H](CO)Nc1ccc2ncc(-c3cccc(OC(F)(F)F)c3)n2n1 ... Met
CN1CCC(CNc2ccc3ncc(-c4cc(OC(F)(F)F)ccc4O)n3n2)CC1 ... Met

Qu. Is IC50 strictly under 5 µM for the entry CCC(CO)Nc1ccc2ncc(-c3ccc(N(C)C)cc3)n2n1 (stereo not shown) ?
Ans. Met

Qu. Is IC50 strictly under 5 µM for the entry `Fc1cccc(-c2cnc3ccc(NC4CCCC4)nn23)c1` ?
Ans. Not met

Qu. Is IC50 strictly under 5 µM for the entry `Fc1ccc(-c2ccc3ncc(-c4ccc(F)cc4)n3n2)cc1` ?
Ans. Not met

Qu. Is IC50 strictly under 5 µM for the entry `CN(C)c1cccc(-c2cnc3ccc(NCCCCO)nn23)c1` ?
Ans. Met

Qu. Is IC50 strictly under 5 µM for the entry `Fc1cccc(-c2ccc3ncc(-c4cccc(F)c4)n3n2)c1` ?
Ans. Not met

====

test system: PC-3 Cells; assay: Cell growth inhibition, Cell-Titer-Glo, 96 hours; format: cell-based; settings: Homo sapiens, Table IX (results), read-out: IC50 (PC-3);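 also: luciferase luminescence reflecting cellular ATP, used as a proxy for cell number, with compound-treated cells compared against DMSO vehicle control wells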
Measured pIC50 values are reported for all entries that follow.
Kindly note that pIC50 refers to -log10 of the concentration in mol/L and answer with the value alone.

These recorded examples may help you get a feel for the data.
O=C(C1CC1)N1CCC(CNc2ccc3ncc(-c4cccc(OC(F)(F)F)c4)n3n2)CC1 [Compound 7-36] ... 4.48
COc1ccc(OC(F)(F)F)cc1-c1cnc2ccc(NCC3CCN(C(C)C)CC3)nn12 [Compound 7-48] ... 4.75

Qu. Supply pIC50 measured with PC-3 Cells for COc1ccc(OC(F)(F)F)cc1-c1cnc2ccc(NCCC3CCN(C)CC3)nn12 [Compound 7-44] .
Ans. 4.75

Qu. Supply pIC50 measured with PC-3 Cells for CCN1CCC(CNc2ccc3ncc(-c4cc(OC(F)(F)F)ccc4O)n3n2)CC1 [Compound 7-47] .
Ans. 4.24

====

target: Pim-1 kinase (Homo sapiens, UniProt P11309); assay: Promega Kinase-Glo Pim-1 kinase inhibition assay; format: biochemical; conditions: IC50 (Kinase inhibitory activity), Table V; Pim-1 kinase, Kinase-Glo;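 also: in vitro Pim-1 reaction run 2 h at 30 °C, then leftover ATP measured by luciferase luminescence, where signal falls as kinase activity rises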
Sequence (P11309 whole entry): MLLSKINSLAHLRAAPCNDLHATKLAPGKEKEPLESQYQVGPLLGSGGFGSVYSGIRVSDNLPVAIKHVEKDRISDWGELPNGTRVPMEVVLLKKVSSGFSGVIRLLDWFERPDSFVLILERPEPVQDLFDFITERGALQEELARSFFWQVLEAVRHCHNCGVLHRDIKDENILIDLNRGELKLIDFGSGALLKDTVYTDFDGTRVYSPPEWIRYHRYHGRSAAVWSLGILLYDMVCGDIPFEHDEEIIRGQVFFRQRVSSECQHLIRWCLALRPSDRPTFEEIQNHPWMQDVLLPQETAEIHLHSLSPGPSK
endpoint.name: IC50 (µM)
Express your answer in µM, writing the number without its unit.

These recorded examples may help you get a feel for the data.
CCC(CO)Nc1ccc2ncc(-c3ccc(N(C)C)cc3)n2n1 (stereo not shown) ... 3.99
NS(=O)(=O)c1ccc(CNc2ccc3ncc(-c4ccc(CCC(=O)O)cc4)n3n2)cc1 ... 4.47
Cc1ccc(S(=O)(=O)Nc2ccc(Nc3ccn4ncc(-c5cccc(N(C)C)c5)c4n3)cc2)cc1 ... 52.1

Qu. Supply IC50 value. Item: CCC(CO)Nc1ccc2ncc(-c3ccc(NS(C)(=O)=O)cc3)n2n1 (stereo not shown)
Ans. 5.35
